# System: Epidermal growth factor receptor (Homo sapiens), P00533 [L858R]
# Sequence (P00533 whole entry L858R): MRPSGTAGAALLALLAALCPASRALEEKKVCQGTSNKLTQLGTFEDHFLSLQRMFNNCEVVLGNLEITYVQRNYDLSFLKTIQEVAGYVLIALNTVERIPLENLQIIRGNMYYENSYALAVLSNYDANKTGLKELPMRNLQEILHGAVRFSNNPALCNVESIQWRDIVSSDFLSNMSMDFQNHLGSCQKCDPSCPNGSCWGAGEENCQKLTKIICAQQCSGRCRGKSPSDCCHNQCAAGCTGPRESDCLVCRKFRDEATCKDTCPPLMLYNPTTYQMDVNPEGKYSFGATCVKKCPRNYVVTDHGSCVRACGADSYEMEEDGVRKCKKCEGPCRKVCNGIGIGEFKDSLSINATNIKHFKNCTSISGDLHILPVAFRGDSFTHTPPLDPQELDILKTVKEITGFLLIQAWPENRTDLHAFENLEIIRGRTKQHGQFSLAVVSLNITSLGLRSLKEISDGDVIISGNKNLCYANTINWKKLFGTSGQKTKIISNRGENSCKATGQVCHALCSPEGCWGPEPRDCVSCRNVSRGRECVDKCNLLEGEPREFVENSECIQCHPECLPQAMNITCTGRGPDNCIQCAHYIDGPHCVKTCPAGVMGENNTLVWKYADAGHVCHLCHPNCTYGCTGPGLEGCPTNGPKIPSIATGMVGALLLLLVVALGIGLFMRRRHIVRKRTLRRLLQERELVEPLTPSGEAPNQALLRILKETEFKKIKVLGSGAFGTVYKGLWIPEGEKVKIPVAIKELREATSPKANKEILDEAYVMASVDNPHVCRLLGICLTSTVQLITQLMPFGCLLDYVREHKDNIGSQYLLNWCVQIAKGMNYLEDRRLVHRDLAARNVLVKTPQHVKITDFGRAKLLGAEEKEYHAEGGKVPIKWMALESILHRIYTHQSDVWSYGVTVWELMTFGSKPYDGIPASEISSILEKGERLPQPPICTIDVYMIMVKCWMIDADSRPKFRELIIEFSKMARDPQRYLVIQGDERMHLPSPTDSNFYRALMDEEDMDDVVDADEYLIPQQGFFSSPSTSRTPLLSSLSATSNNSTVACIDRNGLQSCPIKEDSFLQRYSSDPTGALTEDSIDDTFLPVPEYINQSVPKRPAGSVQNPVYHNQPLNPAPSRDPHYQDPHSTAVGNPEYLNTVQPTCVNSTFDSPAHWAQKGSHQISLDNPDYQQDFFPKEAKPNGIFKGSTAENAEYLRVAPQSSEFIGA
# Sequence (P00533 whole entry): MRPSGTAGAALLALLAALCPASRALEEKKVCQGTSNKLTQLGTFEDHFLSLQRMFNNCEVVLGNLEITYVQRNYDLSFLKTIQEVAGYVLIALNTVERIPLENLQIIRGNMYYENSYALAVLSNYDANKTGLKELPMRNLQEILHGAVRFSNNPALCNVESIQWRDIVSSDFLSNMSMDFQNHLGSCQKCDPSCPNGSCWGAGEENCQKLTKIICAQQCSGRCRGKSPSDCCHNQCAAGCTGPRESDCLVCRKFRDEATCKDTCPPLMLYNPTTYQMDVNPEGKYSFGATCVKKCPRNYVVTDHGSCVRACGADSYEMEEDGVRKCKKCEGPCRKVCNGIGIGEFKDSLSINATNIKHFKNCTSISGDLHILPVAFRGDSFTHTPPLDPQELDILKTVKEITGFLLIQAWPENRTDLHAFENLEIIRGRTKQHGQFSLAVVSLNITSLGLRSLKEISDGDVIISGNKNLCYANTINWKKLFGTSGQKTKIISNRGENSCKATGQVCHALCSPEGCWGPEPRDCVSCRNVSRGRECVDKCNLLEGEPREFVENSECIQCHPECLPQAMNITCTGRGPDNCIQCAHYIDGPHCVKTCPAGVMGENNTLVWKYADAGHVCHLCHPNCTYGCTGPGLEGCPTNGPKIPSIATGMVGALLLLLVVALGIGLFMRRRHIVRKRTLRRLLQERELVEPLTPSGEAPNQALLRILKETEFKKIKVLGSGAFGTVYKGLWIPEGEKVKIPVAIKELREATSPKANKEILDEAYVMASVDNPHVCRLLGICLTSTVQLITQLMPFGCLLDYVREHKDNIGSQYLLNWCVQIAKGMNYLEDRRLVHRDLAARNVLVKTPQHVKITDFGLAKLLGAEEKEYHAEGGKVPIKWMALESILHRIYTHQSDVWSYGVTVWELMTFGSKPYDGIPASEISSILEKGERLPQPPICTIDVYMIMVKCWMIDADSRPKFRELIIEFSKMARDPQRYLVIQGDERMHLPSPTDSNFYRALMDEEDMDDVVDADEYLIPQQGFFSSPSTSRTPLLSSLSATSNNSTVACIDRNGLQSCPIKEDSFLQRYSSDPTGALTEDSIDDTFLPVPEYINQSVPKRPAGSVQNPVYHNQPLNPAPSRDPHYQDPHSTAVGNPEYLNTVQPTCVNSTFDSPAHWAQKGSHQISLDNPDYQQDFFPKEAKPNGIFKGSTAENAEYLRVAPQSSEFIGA
# assayName: Inhibition of recombinant human EGFR L858R mutant expressed in baculovirus at 10 uM using FAM-labelled peptide as substrate pre-incubated for 10 mins followed by substrate addition by mobility shift assay relative to control
reportedEndpoint: inhibition (%)
Answer format: numeric, % implied, no suffix.

Solved cases (9 shown):
structuresmilesstring=CC(C)(C)c1cccc(Nc2cc(NC(=O)Nc3c(Cl)cccc3Cl)ncn2)c1 reportedmeasurement=68.4
structuresmilesstring=Cc1ccc(Nc2cc(NC(=O)Nc3c(Cl)cccc3Cl)ncn2)cc1C reportedmeasurement=63.8
structuresmilesstring=COc1cc(NC(=O)Nc2cc(Nc3ccc(Br)cc3OC)ncn2)cc(OC)c1 reportedmeasurement=36.9
structuresmilesstring=COc1ccc(OC)c(Nc2cc(NC(=O)Nc3c(Cl)cccc3Cl)ncn2)c1 reportedmeasurement=96.9
structuresmilesstring=COc1cc(NC(=O)Nc2cc(Nc3cc(C(F)(F)F)ccc3OC)ncn2)cc(OC)c1 reportedmeasurement=73.1
structuresmilesstring=COc1cc(NC(=O)Nc2cc(Nc3cc(OC)ccc3OC)ncn2)cc(OC)c1 reportedmeasurement=60
structuresmilesstring=COc1cc(NC(=O)Nc2cc(Nc3ccc(C)c(F)c3)ncn2)cc(OC)c1 reportedmeasurement=64.2
structuresmilesstring=COc1ccc(F)cc1Nc1cc(NC(=O)Nc2c(Cl)cccc2Cl)ncn1 reportedmeasurement=63.3
structuresmilesstring=Cc1ccc(Nc2cc(NC(=O)Nc3c(Cl)cccc3Cl)ncn2)cc1F reportedmeasurement=67.2

Could you now look at the following compound, please?
# input Bench note: what inhibition did CCc1cccc(Nc2cc(NC(=O)Nc3cc(OC)cc(OC)c3)ncn2)c1 show?
# output 41

---

Catalogue of molecules with associated pIC50
# Tested on: NCI-H520
# assayName: Antiproliferative activity against human NCI-H520 cells incubated for 48 hrs by MTT assay
# Assay type: functional, cell-based
# assaySetup: NCI-H520, 48 h
Scale: negative log10 of molar concentration, which is what pIC50 denotes.

structuresmilesstring=COc1cc(Nc2cc(NC(=O)Nc3c(Cl)cccc3Cl)ncn2)cc(OC)c1 subjectoftest=NCI-H520 reportedendpoint=pIC50 reportedmeasurement=4.98

# input Observed pIC50 on NCI-H520 for COc1cc(NC(=O)Nc2cc(Nc3cc(OC)ccc3OC)ncn2)cc(OC)c1 , please.
# output 5.12

# input Param readout = pIC50; param system = NCI-H520; param query = COc1ccc(OC)c(Nc2cc(NC(=O)Nc3c(Cl)cccc3Cl)ncn2)c1 ; response: value
# output 5.52

# input # value lookup — system NCI-H520, readout pIC50, item COc1cc(NC(=O)Nc2cc(Nc3cc(I)ccc3OC)ncn2)cc(OC)c1
# output 5.01

# input Value wanted: pIC50 (NCI-H520) of entry COc1cc(NC(=O)Nc2cc(Nc3cc(OC)cc(OC)c3)ncn2)cc(OC)c1
# output 4.96

# input What is its pIC50 for NCI-H520? Entry: Cc1cc(F)cc(Nc2cc(NC(=O)Nc3c(Cl)cccc3Cl)ncn2)c1
# output 5.42

# input Provide value of pIC50 for this record tested with NCI-H520: COc1cc(NC(=O)Nc2cc(Nc3cc(C(F)(F)F)ccc3OC)ncn2)cc(OC)c1
# output 5.35

---

# System: NCI-H226
# assayName: Antiproliferative activity against human NCI-H226 cells assessed as inhibition of cell growth at 10 uM incubated for 48 hrs by MTT assay relative to control
# Assay type: functional
# assaySetup: NCI-H226, 48 h
reportedEndpoint: inhibition at 10 µM (%)
Value expressed in %; do not type the unit.

Solved entries (count: 5):
structuresmilesstring=COc1cc(NC(=O)Nc2cc(Nc3cccc(C(C)(C)C)c3)ncn2)cc(OC)c1 reportedmeasurement=40
structuresmilesstring=Cc1cc(F)cc(Nc2cc(NC(=O)Nc3c(Cl)cccc3Cl)ncn2)c1 reportedmeasurement=78.1
structuresmilesstring=Cc1ccc(Nc2cc(NC(=O)Nc3c(Cl)cccc3Cl)ncn2)cc1F reportedmeasurement=40.7
structuresmilesstring=COc1cc(NC(=O)Nc2cc(Nc3ccc(C)c(F)c3)ncn2)cc(OC)c1 reportedmeasurement=39.7
structuresmilesstring=COc1ccc(C(F)(F)F)cc1Nc1cc(NC(=O)Nc2c(Cl)cccc2Cl)ncn1 reportedmeasurement=60.1

# input Name the recorded inhibition at 10 µM for COc1cc(NC(=O)Nc2cc(Nc3ccc(C(C)(C)C)cc3)ncn2)cc(OC)c1 .
# output 47.7

# input Could you share which inhibition at 10 µM value was measured for COc1cc(NC(=O)Nc2cc(Nc3ccc(C)c(C)c3)ncn2)cc(OC)c1 ?
# output 45.3

# input Looking for the measured inhibition at 10 µM of CC(C)(C)c1ccc(Nc2cc(NC(=O)Nc3c(Cl)cccc3Cl)ncn2)cc1 , can you help?
# output 40

# input inhibition at 10 µM lookup needed for CCc1ccc(Nc2cc(NC(=O)Nc3cc(OC)cc(OC)c3)ncn2)cc1 , thanks.
# output 50.1

---

inhibition values by entry
# Tested on: Epidermal growth factor receptor (Homo sapiens), P00533 [L858R]
# assayName: Inhibition of recombinant human EGFR L858R mutant expressed in baculovirus at 10 uM using FAM-labelled peptide as substrate pre-incubated for 10 mins followed by substrate addition by mobility shift assay relative to control
The reply should contain only the number, in %.

structuresmilesstring=COc1cc(NC(=O)Nc2cc(Nc3ccc(C)c(C)c3)ncn2)cc(OC)c1 subjectoftest="Epidermal growth factor receptor (Homo sapiens), P00533 [L858R]" reportedmeasurement=39.5
structuresmilesstring=COc1cc(NC(=O)Nc2cc(Nc3cc(OC)cc(C(F)(F)F)c3)ncn2)cc(OC)c1 subjectoftest="Epidermal growth factor receptor (Homo sapiens), P00533 [L858R]" reportedmeasurement=48.6
structuresmilesstring=COc1ccc(Nc2cc(NC(=O)Nc3c(Cl)cccc3Cl)ncn2)cc1C subjectoftest="Epidermal growth factor receptor (Homo sapiens), P00533 [L858R]" reportedmeasurement=76.4
structuresmilesstring=COc1cc(NC(=O)Nc2cc(Nc3cc(Br)ccc3OC)ncn2)cc(OC)c1 subjectoftest="Epidermal growth factor receptor (Homo sapiens), P00533 [L858R]" reportedmeasurement=52.4
structuresmilesstring=CCc1ccc(Nc2cc(NC(=O)Nc3c(Cl)cccc3Cl)ncn2)cc1 subjectoftest="Epidermal growth factor receptor (Homo sapiens), P00533 [L858R]" reportedmeasurement=89.4
structuresmilesstring=COc1cc(NC(=O)Nc2cc(Nc3cccc(C(C)(C)C)c3)ncn2)cc(OC)c1 subjectoftest="Epidermal growth factor receptor (Homo sapiens), P00533 [L858R]" reportedmeasurement=29.3
structuresmilesstring=COc1cc(NC(=O)Nc2cc(Nc3ccc(C(C)(C)C)cc3)ncn2)cc(OC)c1 subjectoftest="Epidermal growth factor receptor (Homo sapiens), P00533 [L858R]" reportedmeasurement=2.7
structuresmilesstring=COc1ccc(Br)cc1Nc1cc(NC(=O)Nc2c(Cl)cccc2Cl)ncn1 subjectoftest="Epidermal growth factor receptor (Homo sapiens), P00533 [L858R]" reportedmeasurement=95.9

# input What reported inhibition corresponds to O=C(Nc1cc(Nc2ccc(F)c(Cl)c2)ncn1)Nc1c(Cl)cccc1Cl on Epidermal growth factor receptor (Homo sapiens), P00533 [L858R]?
# output 97

# input Lab request: please report inhibition under test system Epidermal growth factor receptor (Homo sapiens), P00533 [L858R] for COc1cc(Nc2cc(NC(=O)Nc3c(Cl)cccc3Cl)ncn2)cc(OC)c1
# output 79.4

---

# assayName: AUC (0 to infinity) in Sprague-Dawley rat at 30 mg/kg, po measured upto 24 hrs by UPLC-MS/MS
# Format: ADME, organism-based
# Set-up: dose 30 mg/kg, route oral, time infinity
# assaySetup: in vivo
reportedEndpoint: AUC(0-inf) (ng·h/mL)
Only the number, expressed in ng·h/mL, is required.

# input Any idea what AUC(0-inf) was measured for COc1ccc(OC)c(Nc2cc(NC(=O)Nc3c(Cl)cccc3Cl)ncn2)c1 ?
# output 13000

---

# subjectOfTest: Epidermal growth factor receptor (Homo sapiens)
# assayName: Inhibition of N-terminal GST-tagged human EGFR (d746-750AA) expressed in baculovirus at 10 uM using FAM-labelled peptide as substrate pre-incubated for 10 mins followed by substrate addition by mobility shift assay relative to control
reportedEndpoint: inhibition (%)
Note: unit % is implicit; provide only the numeric part.

// worked examples, inhibition included
structuresmilesstring=COc1cc(NC(=O)Nc2cc(Nc3cc(I)ccc3OC)ncn2)cc(OC)c1 reportedendpoint=inhibition valueunits=% reportedmeasurement=60.2
structuresmilesstring=COc1cc(NC(=O)Nc2cc(Nc3cc(F)ccc3OC)ncn2)cc(OC)c1 reportedendpoint=inhibition valueunits=% reportedmeasurement=35.4
structuresmilesstring=COc1cc(Br)ccc1Nc1cc(NC(=O)Nc2c(Cl)cccc2Cl)ncn1 reportedendpoint=inhibition valueunits=% reportedmeasurement=75.9

# input What does the record list as inhibition for Cc1ccc(Nc2cc(NC(=O)Nc3c(Cl)cccc3Cl)ncn2)cc1C ?
# output 58.6

---

# System: NCI-H1581
# assayName: Antiproliferative activity against human NCI-H1581 cells assessed as inhibition of cell growth at 10 uM incubated for 48 hrs by MTT assay relative to control
# Assay type: functional
# assaySetup: NCI-H1581, 48 h
Measured inhibition at 10 µM accompanies every entry in the list below.
Form entry: value (%) — number only.

structuresmilesstring=COc1cc(NC(=O)Nc2cc(Nc3ccc(Br)cc3OC)ncn2)cc(OC)c1 valueunits=% reportedmeasurement=20.1
structuresmilesstring=COc1ccc(OC)c(Nc2cc(NC(=O)Nc3c(Cl)cccc3Cl)ncn2)c1 valueunits=% reportedmeasurement=93.1
structuresmilesstring=COc1cc(NC(=O)Nc2cc(Nc3cc(C)cc(F)c3)ncn2)cc(OC)c1 valueunits=% reportedmeasurement=28.3
structuresmilesstring=Cc1cc(F)cc(Nc2cc(NC(=O)Nc3c(Cl)cccc3Cl)ncn2)c1 valueunits=% reportedmeasurement=65

# input What inhibition at 10 µM value was documented for this molecule, CC(C)(C)c1cccc(Nc2cc(NC(=O)Nc3c(Cl)cccc3Cl)ncn2)c1 ?
# output 64.3
